Test system: MOLT-4
test_details: Antiproliferative activity against human MOLT-4 cells assessed as reduction in cell viability measured after 72 hrs by Alamar blue assay
Type: functional, cell-based
condition_parameters: MOLT-4, 72 h
pIC50: −log10 of the molar value.
This listing pairs compounds with measured pIC50.

Use these answered entries as a reference point.
> print(dat)
                                   compound  test.target  measurement.type  readout.value
1  CN1C(=O)CCC(N2Cc3c(cccc3-c3ccccc3OCC(=O)N/N=C/c3nn(Cc4ccccc4)c4ccccc34)C2=O)C1=O (stereo not drawn)       MOLT-4             pIC50         < 6.00
2  CN1C(=O)CCC(N2Cc3c(cccc3-c3ccccc3OCC(=O)N/N=C/c3cn(S(=O)(=O)c4ccccc4)c4ccccc34)C2=O)C1=O (stereo not drawn)       MOLT-4             pIC50         < 6.00
3  O=C(COc1ccccc1-c1cccc2c1CN(C1CCC(=O)NC1=O)C2=O)N/N=C/c1cn(S(=O)(=O)c2ccccc2)c2ccccc12 (stereo not drawn)       MOLT-4             pIC50           6.76
4  O=C(COc1ccccc1-c1cccc2c1CN(C1CCC(=O)NC1=O)C2=O)N/N=C/c1nn(Cc2ccccc2)c2ccccc12 (stereo not drawn)       MOLT-4             pIC50           6.59
5  Cc1nc2ccccn2c1/C=N/NC(=O)COc1ccccc1-c1cccc2c1CN(C1CCC(=O)N(C)C1=O)C2=O (stereo not drawn)       MOLT-4             pIC50         < 5.00
6  CN1CCN(c2ncc(/C=N/NC(=O)COc3ccccc3-c3cccc4c3CN(C3CCC(=O)N(C)C3=O)C4=O)s2)CC1 (stereo not drawn)       MOLT-4             pIC50         < 5.00
7  Cc1nc2ccccn2c1/C=N/NC(=O)COc1ccccc1-c1cccc2c1CN(C1CCC(=O)NC1=O)C2=O (stereo not drawn)       MOLT-4             pIC50         < 5.00

The record that follows has no pIC50 shown yet.
Exam item: Answer with pIC50 of CN1CCN(c2ncc(/C=N/NC(=O)COc3ccccc3-c3cccc4c3CN(C3CCC(=O)NC3=O)C4=O)s2)CC1 (stereo not drawn) measured for MOLT-4.
Marked response: < 6.00

* * *

This listing pairs compounds with measured viability at 1 µM.
Tested on: RS4-11
test_details: Antiproliferative activity against human RS4-11 cells assessed as cell viability at 1 uM measured after 72 hrs by Alamar blue assay
Type: functional
condition_parameters: read-out: Activity
Field: numeric (%). Do not append units.

Use these answered entries as a reference point.
> print(dat)
                                   compound  readout.value
1  O=C(COc1ccccc1-c1cccc2c1CN(C1CCC(=O)NC1=O)C2=O)N/N=C/c1nn(Cc2ccccc2)c2ccccc12 (centres undefined)             11
2  CN1CCN(c2ncc(/C=N/NC(=O)COc3ccccc3-c3cccc4c3CN(C3CCC(=O)NC3=O)C4=O)s2)CC1 (centres undefined)             24
3  Cc1nc2ccccn2c1/C=N/NC(=O)COc1ccccc1-c1cccc2c1CN(C1CCC(=O)NC1=O)C2=O (centres undefined)             25

Exam item: Fill in reported viability at 1 µM for this entry: O=C(COc1ccc(-c2ccc3c(c2)CN(C2CCC(=O)NC2=O)C3=O)cc1)N/N=C/c1c(C(F)(F)F)ccc(Cl)c1Cl (centres undefined)
Marked response: 54

* * *

Test system: RS4-11
test_details: Antiproliferative activity against human RS4-11 cells assessed as cell viability at 1 uM measured after 72 hrs by Alamar blue assay
Format: functional
condition_parameters: read-out: Activity
This listing pairs compounds with measured viability at 1 µM.
Field: numeric (%). Do not append units.

Exam item: Fill in reported viability at 1 µM for this entry: CN1C(=O)CCC(N2Cc3c(cccc3-c3ccccc3OCC(=O)N/N=C/c3nn(Cc4ccccc4)c4ccccc34)C2=O)C1=O (stereo not drawn)
Marked response: 98

Exam item: Fill in reported viability at 1 µM for this entry: CN1C(=O)CCC(N2Cc3c(cccc3-c3ccccc3OCC(=O)N/N=C/c3cn(S(=O)(=O)c4ccccc4)c4ccccc34)C2=O)C1=O (stereo not drawn)
Marked response: 97

Exam item: Fill in reported viability at 1 µM for this entry: O=C(COc1ccc(-c2ccc3c(c2)CN(C2CCC(=O)NC2=O)C3=O)cc1)N/N=C/c1c(Cl)ccc(C(F)(F)F)c1Cl (stereo not drawn)
Marked response: 47

Exam item: Fill in reported viability at 1 µM for this entry: CN1CCN(c2ncc(/C=N/NC(=O)COc3ccccc3-c3cccc4c3CN(C3CCC(=O)N(C)C3=O)C4=O)s2)CC1 (stereo not drawn)
Marked response: 96

Exam item: Fill in reported viability at 1 µM for this entry: Cc1nc2ccccn2c1/C=N/NC(=O)COc1ccccc1-c1cccc2c1CN(C1CCC(=O)N(C)C1=O)C2=O (stereo not drawn)
Marked response: 89

Exam item: Fill in reported viability at 1 µM for this entry: O=C(COc1ccccc1-c1cccc2c1CN(C1CCC(=O)NC1=O)C2=O)N/N=C/c1cn(S(=O)(=O)c2ccccc2)c2ccccc12 (stereo not drawn)
Marked response: 15
